- System: LG0703-F948-PDC complex spheroid viability
- Experiment Notes: Anticancer human tumor LG0703-F948-PDC patient-derived lung adenocarcinoma cell line growth inhibition [RAS]
- Setup Conditions: second compound 0.000949 µM; first compound 1 µM; stronger effect = lower value
Parameter: viability, T/C (%)
# output: bare number, implied unit %

// known answers, use as guide
- Compound: "Cc1nc(N2CCC3(CC2)COC(C)C3N)c(CO)nc1Sc1ccnc(N)c1Cl (centres undefined) + CCn1c(-c2cccnc2C(C)OC)c2c3cc(ccc31)N1CCOC(CC(NC(=O)C(C(C)C)N(C)C(=O)C3(F)CCN(C(=O)C#CC(C)(C)N(C)C)CC3)C(=O)N3CCCC(N3)C(=O)OCC(C)(C)C2)C1"
  Unit Annotation: "%"
  viability, T/C: 43.1
- Compound: "CC(C)NCC(C(=O)N1CCN(c2ncnc3c2C(C)CC3O)CC1)c1ccc(Cl)cc1 (centres undefined) + CCn1c(-c2cccnc2C(C)OC)c2c3cc(ccc31)N1CCOC(CC(NC(=O)C(C(C)C)N(C)C(=O)C3(F)CCN(C(=O)C#CC(C)(C)N(C)C)CC3)C(=O)N3CCCC(N3)C(=O)OCC(C)(C)C2)C1"
  Unit Annotation: "%"
  viability, T/C: 51.9
- Compound: "CC1(O)CCCC1n1c(=O)c(C(F)F)cc2cnc(NC3CCN(S(C)(=O)=O)CC3)nc21 (centres undefined) + CCn1c(-c2cc(N3CCN(C)CC3)cnc2C(C)OC)c2c3cc(ccc31)-c1csc(n1)CC(NC(=O)C1CC1C)C(=O)N1CCCC(N1)C(=O)OCC(C)(C)C2"
  Unit Annotation: "%"
  viability, T/C: 71.1

Next, consider the following compound.
Qu. Given the compound CC1(O)CCCC1n1c(=O)c(C(F)F)cc2cnc(NC3CCN(S(C)(=O)=O)CC3)nc21 (centres undefined) + CCn1c(-c2cccnc2C(C)OC)c2c3cc(ccc31)N1CCOC(CC(NC(=O)C(C(C)C)N(C)C(=O)C3(F)CCN(C(=O)C#CC(C)(C)N(C)C)CC3)C(=O)N3CCCC(N3)C(=O)OCC(C)(C)C2)C1 , what is its reported viability, T/C?
Ans. 84.6

----------
Recorded viability, T/C, one value per entry.
- Test system: LG0703-F948-PDC complex spheroid viability
- Experiment Notes: Anticancer human tumor LG0703-F948-PDC cell line growth inhibition [RAS];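 further: spheroids exposed to agents for 7 days; 100% = DMSO vehicle wells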
- Setup Conditions: second compound 0.00949 µM; first compound 0.0316 µM; stronger effect = lower value
# output: bare number, implied unit %

- Compound: "CC1(O)CCCC1n1c(=O)c(C(F)F)cc2cnc(NC3CCN(S(C)(=O)=O)CC3)nc21 (stereo not drawn) + CCn1c(-c2cc(N3CCN(C)CC3)cnc2C(C)OC)c2c3cc(ccc31)-c1csc(n1)CC(NC(=O)C1CC1C)C(=O)N1CCCC(N1)C(=O)OCC(C)(C)C2"
  Unit Annotation: "%"
  viability, T/C: 27.4
- Compound: "CCC(CC)c1cc(NC2CCC(N)C2)n2nccc2n1 (stereo not drawn) + CCn1c(-c2cccnc2C(C)OC)c2c3cc(ccc31)N1CCOC(CC(NC(=O)C(C(C)C)N(C)C(=O)C3(F)CCN(C(=O)C#CC(C)(C)N(C)C)CC3)C(=O)N3CCCC(N3)C(=O)OCC(C)(C)C2)C1"
  Unit Annotation: "%"
  viability, T/C: 87.5

Next, consider the following compound.
Qu. Given the compound CC(C)NCC(C(=O)N1CCN(c2ncnc3c2C(C)CC3O)CC1)c1ccc(Cl)cc1 (stereo not drawn) + CCn1c(-c2cccnc2C(C)OC)c2c3cc(ccc31)N1CCOC(CC(NC(=O)C(C(C)C)N(C)C(=O)C3(F)CCN(C(=O)C#CC(C)(C)N(C)C)CC3)C(=O)N3CCCC(N3)C(=O)OCC(C)(C)C2)C1 , what is its reported viability, T/C?
Ans. 100
